Measured values drawn from ChEMBL document CHEMBL1158509 for this set.

assay: Aqueous solubility at pH 1; type: physicochemical
measurement label: solubility (µM)
Answer in µM, number only, no unit symbol.

• COc1ccc(C(c2ccccc2)c2nc(-c3ccc(F)cc3)c(CC(=O)O)s2)cc1 (configuration not stated) = 40

Sample O=C(O)Cc1sc(C(c2ccccc2)c2ccccc2)nc1-c1ccc(Cl)cc1 — what was its solubility? 197

----------
experiment: Aqueous solubility at pH 7.4; format: physicochemical
measurement label: solubility (µM)
Answer in µM, number only, no unit symbol.

Sample O=C(O)Cc1sc(C(c2ccccc2)c2ccccc2)nc1-c1ccc(Cl)cc1 — what was its solubility? 154

----------
target: Prostaglandin D2 receptor (Homo sapiens, UniProt Q13258); test: Inhibition of DP1 receptor
Sequence (Q13258 whole entry): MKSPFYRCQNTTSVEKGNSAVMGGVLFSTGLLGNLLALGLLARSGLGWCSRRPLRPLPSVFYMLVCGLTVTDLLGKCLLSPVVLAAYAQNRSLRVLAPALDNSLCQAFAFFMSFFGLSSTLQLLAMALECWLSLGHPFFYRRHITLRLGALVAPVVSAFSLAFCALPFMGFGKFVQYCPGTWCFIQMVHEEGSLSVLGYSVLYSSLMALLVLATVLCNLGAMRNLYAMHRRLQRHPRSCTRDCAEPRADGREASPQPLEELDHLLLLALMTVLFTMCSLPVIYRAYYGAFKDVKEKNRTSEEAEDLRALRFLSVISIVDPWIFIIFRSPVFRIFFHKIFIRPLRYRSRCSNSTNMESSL
measurement label: IC50 (µM)
Answer in µM, number only, no unit symbol.

Sample O=C(O)Cc1sc(C(c2ccccc2)c2ccccc2)nc1-c1ccc(Cl)cc1 — what was its IC50? 100

----------
Molecular target: Prostaglandin D2 receptor 2 (Homo sapiens)
Sequence (Q9Y5Y4 whole entry): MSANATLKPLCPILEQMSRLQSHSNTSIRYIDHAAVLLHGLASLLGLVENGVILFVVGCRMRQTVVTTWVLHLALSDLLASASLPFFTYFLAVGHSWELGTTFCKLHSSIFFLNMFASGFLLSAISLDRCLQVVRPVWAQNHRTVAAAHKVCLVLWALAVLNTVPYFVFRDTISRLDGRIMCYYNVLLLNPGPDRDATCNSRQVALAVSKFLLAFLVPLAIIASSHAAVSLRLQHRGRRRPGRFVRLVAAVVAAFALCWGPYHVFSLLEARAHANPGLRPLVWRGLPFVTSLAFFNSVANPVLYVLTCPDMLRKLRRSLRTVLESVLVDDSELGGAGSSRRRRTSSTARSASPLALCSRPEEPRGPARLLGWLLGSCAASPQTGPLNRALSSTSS
Experiment: Displacement of[3H]PGD2 from human CRTH2 receptor expressed in […] cells
Format: cell-based
measurement label: IC50 (nM)
Answer in nM, number only, no unit symbol.

Use the examples below as a reference point.
• O=C(O)Cc1sc(C(c2ccccc2)c2ccccc2)nc1-c1cccc(F)c1 = 2.9
• O=C(O)Cc1sc(Nc2cccc3ccccc23)nc1-c1ccc(Cl)cc1 = 150
• NS(=O)(=O)c1cccc(-c2nc(C(c3ccc(F)cc3)c3ccc(F)cc3)sc2CC(=O)O)c1 = 140
• COc1ccc(C(c2ccccn2)c2nc(-c3ccc(Cl)cc3)c(CC(=O)O)s2)cc1 (centres undefined) = 61
• O=C(O)Cc1sc(CS(=O)(=O)c2ccc(Cl)cc2)nc1-c1ccc(Cl)cc1 = 1500

Give the reported IC50 for O=C(O)Cc1sc(C(c2ccc(F)cc2)c2ccc(F)cc2)nc1-c1cccc(F)c1 (system: Prostaglandin D2 receptor 2 (Homo sapiens)). 1.4

----------
biological target: Prostaglandin D2 receptor 2 (Homo sapiens) (UniProt Q9Y5Y4); experiment: Antagonist activity at human CRTH2 receptor expressed in […] cells assessed as inhibition of beta arrestin translocation by bioluminescence resonance energy transfer assay relative to control; assay type: functional, cell-based
measurement label: Efficacy (%)
Answer in %, number only, no unit symbol.

Use the examples below as a reference point.
- O=C(O)Cc1sc(NCc2ccccc2)nc1-c1ccc(Cl)cc1: 30
- O=C(O)Cc1sc(C(c2ccc(F)cc2)c2ccc(F)cc2)nc1-c1ccncc1: 80
- CN(C)c1cc(-c2nc(C(c3ccc(F)cc3)c3ccc(F)cc3)sc2CC(=O)O)ccn1: 80
- O=C(O)Cc1sc(Cc2ccccc2)nc1-c1ccc(Cl)cc1: 50
- O=C(O)Cc1sc(Nc2ccccc2)nc1-c1ccc(Cl)cc1: 50

Sample Cn1cc(-c2nc(C(c3ccc(F)cc3)c3ccc(F)cc3)sc2CC(=O)O)cn1 — what was its Efficacy? 80

Sample O=C(O)Cc1sc(C(c2ccc(F)cc2)c2ccc(F)cc2)nc1-c1cn[nH]c1 — what was its Efficacy? 80

Sample Nc1cc(-c2nc(C(c3ccc(F)cc3)c3ccc(F)cc3)sc2CC(=O)O)ccn1 — what was its Efficacy? 80

Sample O=C(O)Cc1sc(C(c2ccc(F)cc2)c2ccc(F)cc2)nc1-c1cccc(F)c1 — what was its Efficacy? 80

Sample O=C(O)Cc1sc(-c2ccccc2)nc1-c1ccc(Cl)cc1 — what was its Efficacy? 50

----------
target: Prostaglandin D2 receptor 2 (Homo sapiens); assay: Antagonist activity at human CRTH2 receptor expressed in […] cells assessed as inhibition of beta arrestin translocation by bioluminescence resonance energy transfer assay relative to control; type: functional, cell-based
measurement label: Efficacy (%)
Answer in %, number only, no unit symbol.

Use the examples below as a reference point.
- NS(=O)(=O)c1ccc(-c2nc(C(c3ccc(F)cc3)c3ccc(F)cc3)sc2CC(=O)O)cc1: 80
- O=C(O)Cc1sc(C(c2ccccc2)c2ccccc2)nc1-c1ccc(C(F)(F)F)cc1: 80
- O=C(O)Cc1sc(C(c2ccccc2)c2ccccc2)nc1-c1ccc(F)cc1: 80

Sample N#Cc1ccc(-c2nc(C(c3ccc(F)cc3)c3ccc(F)cc3)sc2CC(=O)O)cc1 — what was its Efficacy? 30

Sample O=C(O)Cc1sc(C(c2ccc(F)cc2)c2ccc(F)cc2)nc1-c1ccnc(O)c1 — what was its Efficacy? 60

Sample O=C(O)Cc1sc(C(c2ccccc2)c2ccc(O)cc2)nc1-c1ccc(F)cc1 (stereo not drawn) — what was its Efficacy? 80

Sample O=C(O)Cc1sc(-c2ccc(Oc3ccccc3)cc2)nc1-c1ccc(Cl)cc1 — what was its Efficacy? 50

Sample CC(=O)N1CCN(c2cc(-c3nc(C(c4ccc(F)cc4)c4ccc(F)cc4)sc3CC(=O)O)ccn2)CC1 — what was its Efficacy? 80

Sample CCC(c1ccccc1)c1nc(-c2ccc(Cl)cc2)c(CC(=O)O)s1 (stereo not drawn) — what was its Efficacy? 50

Sample O=C(O)Cc1sc(C(c2ccc(F)cc2)c2ccc(F)cc2)nc1-c1cncc(F)c1 — what was its Efficacy? 80

Sample Cc1cc(-c2nc(C(c3ccc(F)cc3)c3ccc(F)cc3)sc2CC(=O)O)ccn1 — what was its Efficacy? 80

Sample Nc1cc(-c2nc(C(c3ccc(F)cc3)c3ccc(F)cc3)sc2CC(=O)O)cc(F)n1 — what was its Efficacy? 30

Sample O=C(O)Cc1sc(CC(c2ccccc2)c2ccccc2)nc1-c1ccc(Cl)cc1 — what was its Efficacy? 50

----------
Target: Prostaglandin D2 receptor 2 (Homo sapiens, UniProt Q9Y5Y4)
Sequence (Q9Y5Y4 whole entry): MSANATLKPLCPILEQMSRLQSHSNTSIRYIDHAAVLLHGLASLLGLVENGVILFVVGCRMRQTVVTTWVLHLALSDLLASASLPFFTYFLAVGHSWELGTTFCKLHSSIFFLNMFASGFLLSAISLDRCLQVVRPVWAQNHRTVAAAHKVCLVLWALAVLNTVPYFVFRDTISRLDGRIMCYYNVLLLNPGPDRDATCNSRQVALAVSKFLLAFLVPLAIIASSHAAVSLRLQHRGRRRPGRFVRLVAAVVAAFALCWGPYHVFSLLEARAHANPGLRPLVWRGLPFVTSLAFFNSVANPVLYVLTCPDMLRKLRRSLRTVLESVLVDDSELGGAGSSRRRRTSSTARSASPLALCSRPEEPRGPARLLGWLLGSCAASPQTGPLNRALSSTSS
Experiment: Displacement of[3H]PGD2 from human CRTH2 receptor expressed in […] cells
Assay type: cell-based
Threshold check on IC50: strictly below 70 nM is Fulfilled; on or above 70 nM is Not fulfilled.

Known results for compounds:
* O=C(O)Cc1sc(C(c2ccccc2)C2CCCCC2)nc1-c1ccc(Cl)cc1 (stereo not given) | Not fulfilled
* O=C(O)Cc1sc(C(Cc2ccccc2)c2ccccc2)nc1-c1ccc(Cl)cc1 (stereo not given) | Fulfilled

Please state whether IC50 is below 70 nM for O=C(O)Cc1sc(C(c2ccc(F)cc2)c2ccc(F)cc2)nc1-c1ccc(Cl)cc1 Fulfilled

Please state whether IC50 is below 70 nM for O=C(O)Cc1sc(C(c2ccccc2)c2ccc(Cl)cc2)nc1-c1ccc(Cl)cc1 (stereo not given) Fulfilled

Please state whether IC50 is below 70 nM for CNc1cc(-c2nc(C(c3ccc(F)cc3)c3ccc(F)cc3)sc2CC(=O)O)ccn1 Fulfilled

Please state whether IC50 is below 70 nM for CS(=O)(=O)c1cccc(-c2nc(C(c3ccc(F)cc3)c3ccc(F)cc3)sc2CC(=O)O)c1 Not fulfilled

Please state whether IC50 is below 70 nM for COc1ccc(-c2nc(C(c3ccccc3)c3ccccc3)sc2CC(=O)O)cc1 Not fulfilled

Please state whether IC50 is below 70 nM for O=C(O)Cc1sc(C(c2ccc(F)cc2)c2ccc(F)cc2)nc1-c1ccn[nH]1 Not fulfilled

Please state whether IC50 is below 70 nM for O=C(O)Cc1sc(NC(=O)c2ccccc2)nc1-c1ccc(Cl)cc1 Not fulfilled

----------
Catalogue of clearance values
experiment: Clearance in rat; format: ADME, organism-based; conditions: in vivo
Answer in mL/min/kg, number only, no unit symbol.

Sample O=C(O)Cc1sc(C(c2ccccc2)c2ccccc2)nc1-c1ccc(Cl)cc1 — what was its clearance? 27

Sample COc1ccc(C(c2ccccc2)c2nc(-c3ccc(F)cc3)c(CC(=O)O)s2)cc1 (configuration not stated) — what was its clearance? 70
